# target or test system: Glycogen synthase kinase-3 alpha (Homo sapiens); note: in the data inactive means no Kd found up to 30 µM
# Sequence (P49840 whole entry): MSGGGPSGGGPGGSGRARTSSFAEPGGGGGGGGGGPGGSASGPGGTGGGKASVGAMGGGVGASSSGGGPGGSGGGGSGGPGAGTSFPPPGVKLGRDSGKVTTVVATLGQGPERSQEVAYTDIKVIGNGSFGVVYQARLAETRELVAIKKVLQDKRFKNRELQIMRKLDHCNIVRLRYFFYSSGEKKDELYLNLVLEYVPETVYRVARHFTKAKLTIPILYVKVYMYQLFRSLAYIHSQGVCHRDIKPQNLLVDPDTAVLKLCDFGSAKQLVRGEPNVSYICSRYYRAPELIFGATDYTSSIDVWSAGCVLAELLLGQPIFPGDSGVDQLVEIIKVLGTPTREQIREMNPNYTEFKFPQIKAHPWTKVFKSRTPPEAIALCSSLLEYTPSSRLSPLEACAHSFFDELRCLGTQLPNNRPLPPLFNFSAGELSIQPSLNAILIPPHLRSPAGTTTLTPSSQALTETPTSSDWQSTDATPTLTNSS
Active and inactive are the calls of the source.
// allowed return values: 1 (yes) (active), 0 (no) (inactive)

Q: Query: recorded result category for "Cc1ccc(S(=O)(=O)Nc2nc3ccccc3nc2Nc2ccc3nsnc3c2)cc1" in this test
A: 0 (no)

Q: So what was the verdict on "CCc1cnn2c(NCc3ccc[n+]([O-])c3)cc(N3CCCC[C@H]3CCO)nc12" in this test?
A: 1 (yes)

Q: Hi, do you know how "C[C@@H]1CN(Cc2ccc(F)cc2)[C@@H](C)CN1C(=O)c1cc2c(C(=O)C(=O)N(C)C)cn(C)c2cc1Cl" came out in this test?
A: 0 (no)

Q: What is the recorded call for this compound in the test? Cc1cc2c(F)c(Oc3ncnn4cc(OC[C@@H](C)OC(=O)[C@H](C)N)c(C)c34)ccc2[nH]1 [BRIVANIB ALANINATE]
A: 0 (no)

Q: I would be grateful if you could indicate the recorded call for "Cn1cc(-c2ccc3nnc(C(F)(F)c4ccc5ncccc5c4)n3n2)cn1" .
A: 0 (no)

Q: Could you please tell me the result logged for "CC[C@@H]1C(=O)N(C)c2cnc(Nc3ccc(C(=O)N[C@H]4CC[C@H](N5CCN(CC6CC6)CC5)CC4)cc3OC)nc2N1C(C)C" in this assay?
A: 0 (no)

Q: Please let me know the test result on file for "CCCS(=O)(=O)Nc1ccc(F)c(C(=O)c2c[nH]c3ncc(-c4ccc(Cl)cc4)cc23)c1F" .
A: 0 (no)

---

# target or test system: Interleukin-1 receptor-associated kinase 1 (Homo sapiens); note: in the data inactive means no Kd found up to 30 µM
# Sequence (P51617 whole entry): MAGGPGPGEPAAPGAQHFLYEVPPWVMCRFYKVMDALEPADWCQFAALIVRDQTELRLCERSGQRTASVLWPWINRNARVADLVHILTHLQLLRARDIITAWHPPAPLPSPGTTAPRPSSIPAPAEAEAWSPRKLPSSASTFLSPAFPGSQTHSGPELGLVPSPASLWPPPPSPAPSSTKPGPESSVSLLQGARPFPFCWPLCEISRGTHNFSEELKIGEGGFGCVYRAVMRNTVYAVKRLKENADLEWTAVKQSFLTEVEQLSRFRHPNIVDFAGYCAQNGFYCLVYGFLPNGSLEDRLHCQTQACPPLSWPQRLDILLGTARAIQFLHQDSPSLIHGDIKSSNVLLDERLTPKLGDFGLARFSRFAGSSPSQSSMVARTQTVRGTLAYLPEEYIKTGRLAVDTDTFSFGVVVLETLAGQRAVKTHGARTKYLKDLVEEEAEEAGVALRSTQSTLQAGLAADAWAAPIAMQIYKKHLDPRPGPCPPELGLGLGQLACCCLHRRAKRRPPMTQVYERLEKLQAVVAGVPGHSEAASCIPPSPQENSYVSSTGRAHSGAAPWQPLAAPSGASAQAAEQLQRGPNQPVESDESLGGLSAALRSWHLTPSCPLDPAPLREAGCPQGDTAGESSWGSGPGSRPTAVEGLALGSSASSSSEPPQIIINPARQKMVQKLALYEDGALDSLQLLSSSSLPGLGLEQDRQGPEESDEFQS
Active and inactive are the calls of the source.
Please answer using one outcome listed in T (active), F (inactive)

Q: What did this assay record as the result for Cc1ccc(-n2nc(C(C)(C)C)cc2NC(=O)NCc2cc(F)ccc2Oc2ccc3c(cnn3CCO)c2)cc1 [PEXMETINIB] ?
A: T

Q: Hey, what did the test say about O=c1sn(-c2cccc3ccccc23)c(=O)n1Cc1ccccc1 [TIDEGLUSIB] ?
A: F

Q: Assay outcome for "CN1CC[C@@H](c2c(O)cc(O)c3c(=O)cc(-c4ccccc4Cl)oc23)[C@@H]1CO" : what was it?
A: F

Q: I would be grateful if you could indicate the recorded call for CC(C)Nc1cc(-c2c[nH]c(C(=O)N[C@H](CO)c3cccc(Cl)c3)c2)c(Cl)cn1 [ULIXERTINIB] .
A: F

Q: // return assay outcome for CC[C@@H]1C(=O)N(C)c2cnc(Nc3ccc(C(=O)N[C@H]4CC[C@H](N5CCN(CC6CC6)CC5)CC4)cc3OC)nc2N1C(C)C [VOLASERTIB]
A: F

Q: Tell me the recorded outcome of this test for Cn1ncc(Cl)c1-c1cc(C(=O)N[C@H](CN)Cc2cccc(F)c2)sc1Cl [AFURESERTIB] .
A: F

Q: Look up the recorded call for Cn1cc(-c2ccc(F)c(C(F)(F)F)c2)nc1C1CCN(c2ncnc3[nH]ncc23)CC1 [LY-2584702] in this test.
A: F

Q: I'd appreciate the recorded outcome for O=C(Nc1ccc(-c2ccnc(Nc3ccc(N4CCOCC4)cc3)n2)cc1)C1CCCN1 (stereo not drawn) [XL-019] from this test.
A: F

---

# target or test system: Uncharacterized protein FLJ45252 (Homo sapiens, UniProt Q6ZSR9); note: in the data inactive means no Kd found up to 30 µM
# Sequence (Q6ZSR9 whole entry): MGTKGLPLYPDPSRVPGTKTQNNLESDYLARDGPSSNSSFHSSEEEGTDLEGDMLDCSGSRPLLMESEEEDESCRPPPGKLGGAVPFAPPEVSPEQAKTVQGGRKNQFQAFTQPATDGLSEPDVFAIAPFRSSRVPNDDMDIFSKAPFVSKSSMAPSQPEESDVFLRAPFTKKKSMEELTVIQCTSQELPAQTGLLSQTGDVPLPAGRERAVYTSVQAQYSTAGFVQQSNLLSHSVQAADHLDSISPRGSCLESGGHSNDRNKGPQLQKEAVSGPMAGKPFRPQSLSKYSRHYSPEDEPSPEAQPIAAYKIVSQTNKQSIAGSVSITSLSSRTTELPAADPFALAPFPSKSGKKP
# stated conditions: read-out: Kd apparent; k-562, colo 205, sk-n-be(2) and mv-4-11; note: in the data inactive means no Kd found up to 30 µM
Activity calls are given as the source filed them.
Pick from active, inactive when you respond.

Q: How was Cc1cc(Nc2cc(N3CCN(C)CC3)nc(/C=C/c3ccccc3)n2)n[nH]1 [ENMD-2076] classified in this test?
A: inactive

Q: What outcome does the record of this test show for O=C1NC(=O)/C(=C/c2ccc3nccc(-c4ccncc4)c3c2)S1 [GSK-1059615] ?
A: active

Q: Test call, this compound: Cn1ncc(Cl)c1-c1cc(C(=O)N[C@H](CN)Cc2cccc(F)c2)sc1Cl [AFURESERTIB]
A: inactive

Q: Which outcome was entered for the compound CNS(=O)(=O)Nc1nccc(Cc2c(C)c3ccc(Oc4ncccn4)cc3oc2=O)c1F [AVUTOMETINIB] in this test?
A: inactive

Q: Each compound tested received a call. Report the one for C[C@@H](Nc1cc(F)cc(F)c1)c1cc(C(=O)N(C)C)cc2c(=O)cc(N3CCOCC3)oc12 [AZD-8186] .
A: inactive

Q: What was the test verdict on Cc1ccc(NC(=O)c2ccc(CN3CC[C@H](N(C)C)C3)c(C(F)(F)F)c2)cc1Nc1nccc(-c2cncnc2)n1 [BAFETINIB] ?
A: inactive

Q: Can you look up the reported call for C=CC(=O)N1CCC(Oc2cc3c(Nc4ccc(Cl)c(Cl)c4F)ncnc3cc2OC)CC1 [POZIOTINIB] for me?
A: inactive

Q: Please share the test call associated with CN(C)C(=O)c1cc2cnc(Nc3ccc(N4CCNCC4)cn3)nc2n1C1CCCC1 [RIBOCICLIB] .
A: active

Q: What call does the record list for COC(=O)[C@@]1(O)C[C@H]2O[C@]1(C)n1c3ccccc3c3c4c(c5c6ccccc6n2c5c31)C(=O)NC4 [K-252A] ?
A: active

Q: Which outcome was entered for the compound O=C(Nc1ccc(-c2ccnc(Nc3ccc(N4CCOCC4)cc3)n2)cc1)C1CCCN1 (stereo unspecified) [XL-019] in this test?
A: active

Q: Would you mind telling me which call this test gave C[C@@H]1CN(Cc2ccc(F)cc2)[C@@H](C)CN1C(=O)c1cc2c(C(=O)C(=O)N(C)C)cn(C)c2cc1Cl [TALMAPIMOD] ?
A: inactive

Q: Record request — test call for Cc1cn(-c2cc(NC(=O)c3ccc(C)c(Nc4nccc(-c5cccnc5)n4)c3)cc(C(F)(F)F)c2)cn1 [NILOTINIB]
A: inactive

Q: Test call, this compound: O=C(Nc1cccc(Cl)c1)Nc1ncc(CCNc2ncnc3ccsc23)s1 [SNS-314]
A: inactive

Q: For COCCNCc1ccc(-c2cc3nccc(Oc4ccc(NC(=S)NC(=O)Cc5ccc(F)cc5)cc4F)c3s2)nc1 [GLESATINIB] , which call appears in the assay record?
A: inactive

Q: I would be grateful if you could indicate the recorded call for C[C@@H](c1ccc2nccn2c1)n1nnc2ncc(-c3cnn(C)c3)nc21 [SAVOLITINIB] .
A: inactive

Q: For this compound, state the assay outcome: COc1cc(CCc2cc(NC(=O)c3ccc(N4C[C@@H](C)N[C@@H](C)C4)cc3)n[nH]2)cc(OC)c1 [AZD-4547]
A: inactive

---

# target or test system: LIM domain kinase 2 (Homo sapiens); note: in the data inactive means no Kd found up to 30 µM
# Sequence (P53671 whole entry, the tested form may be a part): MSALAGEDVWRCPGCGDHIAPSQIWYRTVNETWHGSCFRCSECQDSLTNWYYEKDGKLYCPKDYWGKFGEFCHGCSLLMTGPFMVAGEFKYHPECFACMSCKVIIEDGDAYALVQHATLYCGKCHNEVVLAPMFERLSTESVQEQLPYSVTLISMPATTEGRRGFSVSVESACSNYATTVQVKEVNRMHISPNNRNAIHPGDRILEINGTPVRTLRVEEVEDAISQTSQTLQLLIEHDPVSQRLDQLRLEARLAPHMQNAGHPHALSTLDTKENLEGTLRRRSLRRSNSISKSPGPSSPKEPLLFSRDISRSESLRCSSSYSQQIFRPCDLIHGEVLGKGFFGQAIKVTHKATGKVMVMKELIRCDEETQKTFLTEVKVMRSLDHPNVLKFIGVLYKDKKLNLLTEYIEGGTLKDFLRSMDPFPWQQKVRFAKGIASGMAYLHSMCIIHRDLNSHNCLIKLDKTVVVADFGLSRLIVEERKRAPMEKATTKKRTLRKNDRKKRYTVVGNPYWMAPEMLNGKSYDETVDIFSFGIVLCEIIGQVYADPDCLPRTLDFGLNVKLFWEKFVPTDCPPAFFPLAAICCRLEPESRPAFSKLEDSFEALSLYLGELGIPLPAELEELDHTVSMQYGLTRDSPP
Activity calls are given as the source filed them.
Choose the fitting class; nothing outside active, inactive is accepted.

Q: Test call, this compound: "COc1ccc(-c2ccc3c(N4CCOC[C@@H]4C)nc(N4CCOC[C@@H]4C)nc3n2)cc1CO"
A: inactive

Q: Please let me know the test result on file for "COc1cc2nccc(Oc3ccc(NC(=O)NC4CC4)c(Cl)c3)c2cc1C(N)=O" .
A: inactive

Q: Any idea what this test logged for "CNC(=O)c1ccc(-c2cnc3ncc(Cc4ccc5ncccc5c4)n3n2)cc1F" ?
A: inactive

Q: Hey, what did the test say about "CNS(=O)(=O)Nc1nccc(Cc2c(C)c3ccc(Oc4ncccn4)cc3oc2=O)c1F" ?
A: inactive

Q: # fetch the recorded call for "O=C(c1ccc(F)c(F)c1Nc1ccc(I)cc1F)N1CC(O)([C@@H]2CCCCN2)C1" here
A: inactive

Q: Answer briefly: the call reported for "CNC(=O)CN1CCC(Oc2cc3c(Nc4cccc(Cl)c4F)ncnc3cc2OC)CC1" in this assay.
A: inactive

Q: Lab log entry: "COC(=O)N[C@@H](C)CNc1nccc(-c2cn(C(C)C)nc2-c2cc(Cl)cc(NS(C)(=O)=O)c2F)n1" — outcome as called in the assay?
A: active

Q: Name the outcome recorded for "COc1cc(CCc2cc(NC(=O)c3ccc(N4C[C@@H](C)N[C@@H](C)C4)cc3)n[nH]2)cc(OC)c1" in the assay.
A: inactive

---

Target protein (sequence): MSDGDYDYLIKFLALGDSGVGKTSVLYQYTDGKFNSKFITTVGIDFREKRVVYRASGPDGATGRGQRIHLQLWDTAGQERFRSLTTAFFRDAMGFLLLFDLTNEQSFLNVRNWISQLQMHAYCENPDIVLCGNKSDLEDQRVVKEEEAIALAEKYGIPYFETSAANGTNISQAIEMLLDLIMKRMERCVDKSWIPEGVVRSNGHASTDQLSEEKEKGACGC
Activity calls are given as the source filed them.
Consider the following molecules; for each one, report its Kd.

Q: What value of measured Kd is listed for "COC(=O)N[C@@H](C)CNc1nccc(-c2cn(C(C)C)nc2-c2cc(Cl)cc(NS(C)(=O)=O)c2F)n1" ?
A: > 30 µM (inactive)

Q: GET /values?readout=Kd&item= "Nc1nc(N)c2nc(-c3cccc(O)c3)c(-c3cccc(O)c3)nc2n1"
A: > 30 µM (inactive)

Q: Looking for the measured Kd of "C[C@@H](c1ccc2nccn2c1)n1nnc2ncc(-c3cnn(C)c3)nc21" , can you help?
A: > 30 µM (inactive)

Q: Requested read-out: Kd. Entry: "CN1CCC(CNc2ccc3ncc(-c4cccc(OC(F)(F)F)c4)n3n2)CC1"
A: > 30 µM (inactive)
